Where these numbers come from: PubChem BioAssay AID463173

# System: Wild type
# Procedure Summary: S. aureus survival, RN4220 and DeltatarO strains – OD600, teichoic acid synthesis inhibitors, primary screen (AID 463173)
# Measurement Parameters: S. aureus RN4220 wild type/DeltatarO growth, OD600, 18 h, screened at 18.75 µg/mL (by protocol)
Among all 52,000 compounds or so, about 1,700 (3.3%) were called active. Rule as the data show it: active = survival mostly below about 52% (no sharp cut-off); inactive = mostly above about 56%. For the sample, actives were picked, then their nearest neighbours and some compounds at random.
Result category, one only: active, inactive

Completed entries (count: 3):
query: Status in this test for `Cc1cccc(Cc2c(C)nc3nc(SCc4ccccc4F)nn3c2C)c1` ?
result: inactive

query: Status in this test for `Cc1ccc(Nc2c(-c3ccccc3O)nc3cc(C)ccn23)cc1` ?
result: inactive

query: Status in this test for `Cc1ccc2nc(-c3ccccn3)c(Nc3ccccc3C)n2c1` ?
result: active

***
query: Status in this test for `Cc1ccc2nc(-c3ccccn3)c(Nc3ccc(F)cc3)n2c1` ?
result: active

query: Status in this test for `Cc1ccccc1Nc1c(-c2cccnc2)nc2ccc(Cl)cn12` ?
result: inactive

query: Status in this test for `CCCCN(CCCC)CCNC(=O)c1cn(CC)c2ccc(S(=O)(=O)N3CCc4ccccc4C3)cc2c1=O` ?
result: inactive

query: Status in this test for `Cc1cccc(Cc2c(C)nc3nc(SCc4ccccc4C)nn3c2C)c1` ?
result: inactive

query: Status in this test for `CSc1ccc(-c2nc3cc(C)ccn3c2Nc2ccc(C)cc2)cc1` ?
result: inactive

query: Status in this test for `Cc1nc2c3ccccc3nc(NNC(=O)CCC(=O)N3CCN(c4ccccc4)CC3)n2n1` ?
result: inactive

query: Status in this test for `Cc1ccc2nc(-c3ccncc3)c(Nc3ccccc3C)n2c1` ?
result: inactive

query: Status in this test for `Fc1ccc(Nc2c(-c3ccccn3)nc3ccc(Cl)cn23)cc1` ?
result: inactive

###

Recorded survival values for a group of compounds are listed next.
# Test system: Wild type
# Procedure Summary: S. aureus survival, RN4220 and DeltatarO strains – OD600, teichoic acid synthesis inhibitors, primary screen (AID 463173)
# Measurement Parameters: S. aureus RN4220 wild type/DeltatarO growth, OD600, 18 h, active compounds read low, screened at 18.75 µg/mL (by protocol)
The campaign covered roughly 52,000 compounds. About 1,700 (3.3%) were called active. Many of the other results were omitted from the sample, so actives are more common in it than they were.
# number only, unit % dropped from output

query: So what does the record say about survival for `O=C(c1ccc2c(c1)N(Cc1ccccc1)C(=O)c1ccccc1S2(=O)=O)N1CCc2ccccc21` ?
result: 87

query: So what does the record say about survival for CN(C(=O)c1ccc2c(c1)N(Cc1cccc(Cl)c1)C(=O)c1ccccc1S2=O)C1CCCCC1 (stereo not given) ?
result: 95

query: So what does the record say about survival for `O=C(NCc1ccccc1)c1ccc2c(c1)N(Cc1cccc(Cl)c1)C(=O)c1ccccc1S2(=O)=O` ?
result: 74

***
query: So what does the record say about survival for CCCCN(C)C(=O)c1ccc2c(c1)N(Cc1cccc(Cl)c1)C(=O)c1ccccc1S2=O (stereo not given) ?
result: 124

query: So what does the record say about survival for `O=S1(=O)c2ccccc2N(Cc2ccccc2)c2ccccc21` ?
result: 69

###

# Test system: Wild type
# Procedure Summary: S. aureus survival, RN4220 and DeltatarO strains – OD600, teichoic acid synthesis inhibitors, primary screen (AID 463173)
# Measurement Parameters: S. aureus RN4220 wild type/DeltatarO growth, OD600, 18 h, screened at 18.75 µg/mL (by protocol)
Among all 52,000 compounds or so, about 1,700 (3.3%) were called active. Cut-off read from the data, not from the text of the source: active = survival mostly below about 52% (no sharp cut-off); inactive = mostly above about 56%. This excerpt belongs to a sample that is enriched for actives.
Result category, one only: yes = active, no = inactive

Completed entries (count: 4):
query: Status in this test for `O=C(c1ccco1)n1nc(-c2ccc(Cl)cc2)nc1NCc1ccccc1` ?
result: no

query: Status in this test for `O=C(c1ccc(F)cc1)n1nc(-c2ccc(Cl)cc2)nc1NCc1ccco1` ?
result: no

query: Status in this test for `O=C(c1ccc2c(c1)N(Cc1cccc(Cl)c1)C(=O)c1ccccc1S2(=O)=O)N1CCc2ccccc21` ?
result: yes

query: Status in this test for `O=C(c1ccc(F)cc1)n1nc(-c2ccccc2)nc1NCc1ccco1` ?
result: yes

***
query: Status in this test for `COc1ccccc1CNC(=O)c1ccc2c(c1)N(Cc1cccc(C)c1)C(=O)c1ccccc1S2(=O)=O` ?
result: no

query: Status in this test for `CC(=O)c1ccc(OC(=O)c2c(-c3ccccc3Cl)noc2C)cc1` ?
result: no

query: Status in this test for `O=C(c1ccc(F)cc1)n1nc(-c2ccccc2)nc1NCc1ccc(F)cc1` ?
result: no

query: Status in this test for `O=C(c1ccco1)n1nc(-c2ccc(Cl)cc2)nc1NCc1ccc(F)cc1` ?
result: no

query: Status in this test for `O=S1(=O)c2ccccc2N(Cc2cccc(Cl)c2)c2ccccc21` ?
result: yes

query: Status in this test for `CCOc1ccc(OC(=O)c2c(-c3ccccc3Cl)noc2C)cc1` ?
result: no

###

# Tested on: Wild type
# Procedure Summary: S. aureus survival, RN4220 and DeltatarO strains – OD600, teichoic acid synthesis inhibitors, primary screen (AID 463173)
# Measurement Parameters: S. aureus RN4220 wild type/DeltatarO growth, OD600, 18 h, active compounds read low, screened at 18.75 µg/mL (by protocol)
The campaign covered roughly 52,000 compounds. About 1,700 (3.3%) were called active. For the sample, actives were picked, then their nearest neighbours and some compounds at random.
survival vs 80%: less than gives Yes; not less than gives No.

Completed entries (count: 4):
query: Could you please tell me whether survival recorded for `COc1ccc(C2=NS(=O)(=O)N(C)C(C(=O)Nc3ccc(OC(F)(F)F)cc3)=C2)cc1` is less than 80%?
result: Yes

query: Could you please tell me whether survival recorded for `Cc1ccc2nc(-c3ccc(C)s3)c(Nc3ccc4c(c3)OCCO4)n2c1` is less than 80%?
result: No

query: Could you please tell me whether survival recorded for `Cc1c(Cl)cccc1-n1ncc(C(=O)Nc2ccc(F)cc2F)c1C1CCN(C(=O)OC(C)(C)C)CC1` is less than 80%?
result: Yes

query: Could you please tell me whether survival recorded for `CCN(CC)CC(=O)Nc1nc2ccc(OC)cc2s1` is less than 80%?
result: No

***
query: Could you please tell me whether survival recorded for `Cc1cccc(OCC(=O)N(Cc2cccc(Cl)c2)Cc2ccco2)c1C` is less than 80%?
result: No

###

Recorded survival values for a group of molecules are listed next.
# Test system: Wild type
# Procedure Summary: S. aureus survival, RN4220 and DeltatarO strains – OD600, teichoic acid synthesis inhibitors, primary screen (AID 463173)
# Measurement Parameters: S. aureus RN4220 wild type/DeltatarO growth, OD600, 18 h, active compounds read low, screened at 18.75 µg/mL (by protocol)
Out of some 52,000 compounds screened, about 1,700 (3.3%) were called active. This excerpt belongs to a sample that is enriched for actives.
# number only, unit % dropped from output

query: So what does the record say about survival for `O=c1c(NCCc2ccc(Cl)cc2)nccn1-c1ccccc1` ?
result: 14

query: So what does the record say about survival for `Cc1cccc(-c2nc(SCc3ccc(Br)cc3)n3[nH]c(=O)cc3n2)c1` ?
result: 83

query: So what does the record say about survival for `O=c1cc2nc(-c3ccccc3F)nc(SCc3ccc(Br)cc3)n2[nH]1` ?
result: -2

query: So what does the record say about survival for `Cc1ccc(-c2nc(SCc3ccc(Br)cc3)n3[nH]c(=O)cc3n2)cc1` ?
result: 10

query: So what does the record say about survival for `O=C(CN1C=NS(=O)(=O)c2ccc(C(F)(F)F)cc21)Nc1cccc(C(F)(F)F)c1` ?
result: 76

query: So what does the record say about survival for `Fc1ccc(-n2ncc3c(Nc4ccc(Oc5ccc(Cl)cc5)cc4)ncnc32)cc1` ?
result: 85

query: So what does the record say about survival for `Cc1ccc(Cl)cc1N1CCN(C(=O)c2cn(C3CCCCC3)c(=O)c3c2c2ccccc2n3C)CC1` ?
result: 76

query: So what does the record say about survival for CCOc1ccc(N(CC)S(=O)(=O)N2CCCC(C(=O)Nc3cc(Cl)ccc3C)C2)cc1 (stereo not given) ?
result: 79

query: So what does the record say about survival for `O=C(CCc1ccccc1)Nc1ccccc1` ?
result: 105

Now look at this one.
query: So what does the record say about survival for `COCCn1c(SCC(=O)Nc2sc(C)c(C)c2C#N)nnc1C(C)C` ?
result: 103

###

Recorded survival values for a group of compounds are listed next.
# Tested on: Wild type
# Procedure Summary: S. aureus survival, RN4220 and DeltatarO strains – OD600, teichoic acid synthesis inhibitors, primary screen (AID 463173)
# Measurement Parameters: S. aureus RN4220 wild type/DeltatarO growth, OD600, 18 h, active compounds read low, screened at 18.75 µg/mL (by protocol)
Among all 52,000 compounds or so, about 1,700 (3.3%) were called active. Only a selection was taken, and actives are over-represented in it overall.
# number only, unit % dropped from output

Some entries whose results are on file:
query: So what does the record say about survival for `CC(C)(C)c1ccc(-c2noc(CCC(=O)Nc3cccc(Cl)c3)n2)cc1` ?
result: 87

query: So what does the record say about survival for `CCN(C(=O)c1cc2cc3ccc(OC)cc3nc2o1)c1cccc(C)c1` ?
result: 0

***
query: So what does the record say about survival for `COc1ccc2cc3cc(C(=O)NCc4ccc(C)cc4)oc3nc2c1` ?
result: 89

query: So what does the record say about survival for `O=S(=O)(NCCc1cn2ccsc2n1)c1ccc(Cl)cc1` ?
result: 129

query: So what does the record say about survival for `Cc1ccc(C)c(NC(=O)CCc2nc(-c3ccc(C(C)(C)C)cc3)no2)c1` ?
result: 109

query: So what does the record say about survival for `CCN(C(=O)CCc1nc(-c2ccc(C)cc2)no1)c1cc(C)ccc1C` ?
result: 0
